Tested on: NCI-H226 lung
Assay Explanation: NCI-60 one-dose screen, 48 h
Condition Notes: 10 µM unless noted
Experimental: Growth inhibition of the NCI-H226 human Non-Small Cell Lung tumor cell line is measured as a screen for anti-cancer activity. Cells are grown in 96 well plates and exposed to the test compound for 48 hours. Compounds are tested at a single concentration, which is 10^-5 M for most compounds. The reported endpoint is percent growth (GI% or GIPRCNT), where numbers from 0 - 100% represent growth inhibition, and numbers from -100% - 0 represent cell death. […]
The panel holds about 83,000 compounds, 20% with a hit somewhere; the sample as a whole holds those more often. Activity calls are given as the source filed them. Rule for the calls: active = growth percent below 10; inactive = the rest.
Bench note: report the call from true for active, false for inactive

Exam item: // outcome(item) with item = CCCCC[C@H]1CC=C2C(=O)C(Cl)=C[C@@H]2CC=CCCCC(=O)O[C@@H](CCCCC)CC=C2C(=O)C(Cl)=C[C@@H]2CC=CCCCC(=O)O[C@@H](CCCCC)CC=C2C(=O)C(Cl)=C[C@@H]2CC=CCCCC(=O)O1
Marked response: false

Exam item: // outcome(item) with item = C=C1C(=O)O[C@H]2[C@H]1CC/C(Cn1cc(-c3ccc(OC)cc3)nn1)=C\CC[C@@]1(C)O[C@@H]21
Marked response: true

Exam item: // outcome(item) with item = CN(C)CCCCC(C(=O)CBr)(c1ccccc1)c1ccccc1
Marked response: false

The measured values listed here are drawn from PubChem BioAssay (NCI).
